- Test system: Septoria tritici
- assay_summary: Test A: wheat leaf blotch, preventive spray on wheat seedlings
- Format: in vivo
- condition: 50 ppm, 100 = 100% disease control, 0 = no control relative to controls
Reported Test A disease control rating (wheat leaf blotch) by item:
readout_kind: Test A disease control rating (wheat leaf blotch)

• Cc1ccc(Nc2c(-c3ccc(F)cc3Br)c(C)nn2C)c([N+](=O)[O-])c1 [Compound 90] = 100%
• CCc1nn(C)c(Nc2c(F)cc(F)cc2[N+](=O)[O-])c1-c1ccc(F)cc1Cl [Compound 95] = 100%
• Cc1nn(C)c(Nc2ccccc2[N+](=O)[O-])c1-c1ccc(F)cc1Br [Compound 139] = 98%
• COc1cc(F)c(-c2c(C)nn(C)c2Nc2ccccc2[N+](=O)[O-])c(F)c1 [Compound 147] = 96%
• CCOc1ccc(Nc2c(-c3ccc(F)cc3Cl)c(C)nn2C)c([N+](=O)[O-])c1 [Compound 103] = 97%
• COc1cc(F)c(Nc2c(-c3c(F)cccc3F)c(C)nn2C)c([N+](=O)[O-])c1 [Compound 97] = 100%
• COc1ccc(-c2c(C)nn(C)c2Nc2ccccc2[N+](=O)[O-])c(Cl)c1 [Compound 140] = 99%
• C#CCOc1ccc(Nc2c(-c3ccc(F)cc3Cl)c(C)nn2C)c([N+](=O)[O-])c1 [Compound 5] = 97%

These data points were gathered from patent US12398107B2.
